The measurements presented in this section are drawn from ChEMBL document CHEMBL4219272.

# System: MDA-MB-231
# test description: Antiproliferative activity against human MDA-MB-231 cells after 72 hrs by MTT assay
# Type: functional, cell-based
# measurement setup: MDA-MB-231, 72 h
readout kind: IC50 (µM)
Return type: number; implicit unit µM.

Let me know recorded IC50 for `CC(C)C[C@H](NC(=O)N1C/C(=C\c2ccc(F)cc2)C(=O)/C(=C/c2ccc(F)cc2)C1)B1OC(C)(C)C(C)(C)O1` , thanks. 3.31

* * *

# Test system: HCT-116
# test description: Antiproliferative activity against human HCT116 cells after 72 hrs by MTT assay
# Type: functional, cell-based
# measurement setup: HCT-116, 72 h
pIC50: −log10 of the molar value.
readout kind: pIC50

See these solved cases before continuing.
| compound structure string | recorded value |
| --- | --- |
| CC1(C)OB([C@H](Cc2ccccc2)NC(=O)N2C/C(=C\c3ccc(F)cc3)C(=O)/C(=C/c3ccc(F)cc3)C2)OC1(C)C | 6.22 |
| CC(C)[C@H](NC(=O)N1C/C(=C\c2ccc(F)cc2)C(=O)/C(=C/c2ccc(F)cc2)C1)B1OC(C)(C)C(C)(C)O1 | 6.04 |
| CC(C)C[C@H](NC(=O)[C@H](Cc1ccc2ccccc2c1)NC(=O)N1C/C(=C\c2ccc(F)cc2)C(=O)/C(=C/c2ccc(F)cc2)C1)B1OC(C)(C)C(C)(C)O1 | 6.76 |
| CC(C)C[C@H](NC(=O)CNC(=O)N1C/C(=C\c2ccc(F)cc2)C(=O)/C(=C/c2ccc(F)cc2)C1)B1OC(C)(C)C(C)(C)O1 | 6.43 |
| CC1(C)OB([C@H](CCc2ccccc2)NC(=O)N2C/C(=C\c3ccc(F)cc3)C(=O)/C(=C/c3ccc(F)cc3)C2)OC1(C)C | 5.98 |
| CC(C)C[C@H](NC(=O)[C@H](Cc1ccccc1)NC(=O)N1C/C(=C\c2ccc(F)cc2)C(=O)/C(=C/c2ccc(F)cc2)C1)B1OC(C)(C)C(C)(C)O1 | 6.70 |

A: CC(C)C[C@H](NC(=O)[C@H](Cc1ccccc1)NC(=O)N1C/C(=C\c2ccc(F)cc2)C(=O)/C(=C/c2ccc(F)cc2)C1)B(O)O
B: CC[C@H](NC(=O)N1C/C(=C\c2ccc(F)cc2)C(=O)/C(=C/c2ccc(F)cc2)C1)B1OC(C)(C)C(C)(C)O1
Form: Entry with minimum pIC50 (choose one): A / B When you have decided, please share the label of that item. B
